assay system: T1, His-tagged human HtrA1 protease domain (human, UniProt Q92743 161-367)
T1 construct: His-tagged protease domain; also called huHtrA1-PD-His; huHtrA1-PD
T1 sequence (Q92743 other isoform, or with tags, fused parts or gaps limits assumed): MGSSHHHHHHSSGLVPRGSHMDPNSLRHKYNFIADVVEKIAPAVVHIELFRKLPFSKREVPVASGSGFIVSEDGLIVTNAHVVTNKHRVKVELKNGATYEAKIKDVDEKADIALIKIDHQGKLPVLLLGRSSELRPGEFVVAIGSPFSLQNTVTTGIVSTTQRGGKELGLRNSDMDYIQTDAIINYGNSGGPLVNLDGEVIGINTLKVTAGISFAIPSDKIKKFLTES
assay overview: BIACORE T200 SPR; Fab analyte over huHtrA1-PD-His captured by anti-His antibody
endpoint label: Kd
Entry format: amount then unit.

Query string: # input binder: APEG.LC37.HC23 (Fab, V domains shown, single member of the group m82) VH: EVQLVQSGAEVKKPGASVKVSCKASGYKFRDSEMHWVRQAPGQGLEWIGGVDPETEGAAYNQKFKGRATITRDTSTSTAYLELSSLRSEDTAVYYCTRGYDYDYALDYWGQGTLVTVSS VL: DIQMTQSPSSLSASVGDRVTITCRASSSVEFIHWYQQKPGKAPKPLISATSNLASGVPSRFSGSGSGTDFTLTISSLQPEDFATYYCQQWYSAPWTFGQGTKVEIK ; wanted: its Kd
Result string: 0.146 nM
